# Protocol summary: RAM signaling pathway blockade in yeast – S. cerevisiae, Pdr1DBD-CYC8 efflux-inhibited sensitized strain, primary screen (AID 1298);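 further: 0% = DMSO untreated cells without growth and 100% = 10 µM 1-NA-PP1 full growth; higher means more yeast growth rescued from 5-FOA killing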
# Condition description: S. cerevisiae cbk1-as DSE1-URA3 strain, 5-FOA growth OD615, 2 d; at 50 µM; stronger effect = higher value
Experimental readout: RAM network inhibition (%)
Write down the numeric answer in % and omit the unit.

Check out these entries, answers already filled in.
- Compound: "Cc1ccc2c(c1)C(c1ccccc1)N(C(=O)C(C)C)CC(=O)N2 (stereo unspecified)"
  Unit abbrev: "%"
  RAM network inhibition: 4.21
- Compound: "O=C(OCCN1C(=O)c2ccccc2C1=O)c1cc2ccccc2o1"
  Unit abbrev: "%"
  RAM network inhibition: 3.68
- Compound: "Cc1ccc(SCCNC(=O)C(CO)(CO)CO)cc1"
  Unit abbrev: "%"
  RAM network inhibition: 0.52
- Compound: "CCC(=NCCc1ccccc1)C1=C(O)CCC1=O"
  Unit abbrev: "%"
  RAM network inhibition: 2.13
- Compound: "O=C1C=C(O)CC(c2ccc(Cl)cc2)C1 (stereo unspecified)"
  Unit abbrev: "%"
  RAM network inhibition: 8.23

Now consider the entry below.
Dear colleague, I am looking for the recorded RAM network inhibition of the following compound: C=C(C)CC1N(c2cccc(OC)c2)C(=O)C2C(C(=O)O)C3C=CC21O3 (stereo unspecified)
5.36

###

# Study target: Receptor tyrosine-protein kinase erbB-2 (Homo sapiens)
# Protocol summary: reducers of endogenous Her2 protein level, primary screen, SKBR3 breast tumor cells, AlphaScreen, ATP viability (AID 461);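 further: lower value means less Her2 protein in the cells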
# Condition description: 18-24 h, at 10 µM, stronger effect = lower value
Measured Her2 level, listed per entry.
Write down the numeric answer in % and omit the unit.

Check out these entries, answers already filled in.
- Compound: "C[C@]12CC[C@@H]3c4ccc(O)cc4CC[C@H]3[C@@H]1CC[C@@H]2OC(=O)CCC(=O)O"
  Unit abbrev: "%"
  Recorded result: 111
- Compound: "COc1ccc(C(CNC(=O)c2ccc(OCC3CCCO3)cc2)N2CCOCC2)cc1 (stereo not given)"
  Unit abbrev: "%"
  Recorded result: 93.5
- Compound: "COc1cc2[nH]c(=O)n(CCC(=O)N3CCc4ccccc4C3)c(=O)c2cc1OC"
  Unit abbrev: "%"
  Recorded result: 106
- Compound: "CC1(C)Cc2noc(N)c2C(C)(C)N1OC(=O)c1ccccc1"
  Unit abbrev: "%"
  Recorded result: 132

Dear colleague, I am looking for the recorded Her2 level of the following compound: CCn1c(=O)c(C(=O)NCCc2ccccc2)c(O)c2ccccc21
102

Dear colleague, I am looking for the recorded Her2 level of the following compound: CNC(=O)CSc1nnc(-c2ccc(S(=O)(=O)N3CCCC3)cc2)n1-c1cccc(C)c1C
78.5

Dear colleague, I am looking for the recorded Her2 level of the following compound: Cc1[nH]c(=O)[nH]c(=O)c1S(=O)(=O)N1c2ccc(F)cc2CCC1C (stereo not given)
90

Dear colleague, I am looking for the recorded Her2 level of the following compound: Cc1cc2ccccn2c1C(=O)c1ccncc1
98

Dear colleague, I am looking for the recorded Her2 level of the following compound: CCCn1c(SCC(=O)NCCc2ccccc2)nnc1-c1ccccn1
100

Dear colleague, I am looking for the recorded Her2 level of the following compound: CC(=O)OCC(=O)[C@@]1(O)CC[C@H]2[C@@H]3CCC4=CC(=O)C=C[C@]4(C)[C@@]3(Cl)[C@@H](Cl)C[C@@]21C
116

Dear colleague, I am looking for the recorded Her2 level of the following compound: CC1(C)O[C@@H]2C[C@H]3[C@@H]4C[C@H](F)C5=CC(=O)C=C[C@]5(C)[C@@]4(F)[C@@H](O)C[C@]3(C)[C@]2(C(=O)CO)O1
110

Dear colleague, I am looking for the recorded Her2 level of the following compound: COC(=O)C(O)(CC(=O)c1ccc(OC)cc1)C(F)(F)F (stereo not given)
98

Dear colleague, I am looking for the recorded Her2 level of the following compound: Cc1cn([C@H]2C=C[C@@H](CO)O2)c(=O)[nH]c1=O
94.5

Dear colleague, I am looking for the recorded Her2 level of the following compound: CN(CCO)CC(O)Cn1cnc2c1c(=O)n(C)c(=O)n2C (stereo not given) (tested in a mixture with another compound)
88.5

Dear colleague, I am looking for the recorded Her2 level of the following compound: CCCCOc1cc(=O)[nH]c(=O)[nH]1
99

Dear colleague, I am looking for the recorded Her2 level of the following compound: CC[N+](C)(C)c1cccc(O)c1
94.5

Dear colleague, I am looking for the recorded Her2 level of the following compound: CC(C)OC(=O)CSc1nc2cccnc2n1C1CCCCC1
93.5

Dear colleague, I am looking for the recorded Her2 level of the following compound: COc1ccc(C2CC(c3ccc(Cl)cc3)Nc3nc(NC(=O)c4ccco4)nn32)cc1 (stereo not given)
78

Dear colleague, I am looking for the recorded Her2 level of the following compound: O=C(c1ccc(S(=O)(=O)N2CCOCC2)cc1)N(c1ccc(F)cc1)C1C=CS(=O)(=O)C1 (stereo not given)
109

Dear colleague, I am looking for the recorded Her2 level of the following compound: CC(C)C(=O)Nc1cccc(NC(=O)c2cccnc2)c1
98.5
